# System: RAW 264.7 macrophages
# test.summary: SAFIRE macrophage assay: host toxicity (adherent macrophage count, morphology)
# Assay type: cell-based
# protocol.conditions: 25 uM
Recorded 25 uM Avg Cell # Score split into classes group A: < 80; group B: ≥ 80 and < 100; group C: ≥ 100

Each molecule maps to one class by 25 uM Avg Cell # Score. Which class for OC(COc1ccc(Cl)c(Cl)c1)CN1CCC2(CCO2)CC1 (stereo not shown) ?
group C

Each molecule maps to one class by 25 uM Avg Cell # Score. Which class for OC(COc1cc(Cl)cc(Cl)c1)CN1CCC(Nc2nccc(C(F)(F)F)n2)CC1 (stereo not shown) ?
group A

Each molecule maps to one class by 25 uM Avg Cell # Score. Which class for COc1ccccc1OCC(O)CN1CCC(Nc2nccc(C(F)(F)F)n2)C1 (stereo not shown) ?
group B

Each molecule maps to one class by 25 uM Avg Cell # Score. Which class for OC(COc1ccccc1C(F)(F)F)CN1CCC(Nc2nccc(C(F)(F)F)n2)CC1 (stereo not shown) ?
group A

Each molecule maps to one class by 25 uM Avg Cell # Score. Which class for OC(COc1ccc(Cl)c(Cl)c1)CN1CCN(CC2CC2)CC1 (stereo not shown) ?
group C

Each molecule maps to one class by 25 uM Avg Cell # Score. Which class for OC(COc1ccc(F)cc1)CN1CCC(Nc2nccc(C(F)(F)F)n2)C1 (stereo not shown) ?
group B

Each molecule maps to one class by 25 uM Avg Cell # Score. Which class for OC(CNC1CCNCC1)COc1ccccc1Cl (stereo not shown) ?
group C

Each molecule maps to one class by 25 uM Avg Cell # Score. Which class for COC(=O)c1ccc(OCC(O)CN2CCC(Nc3nccc(C(F)(F)F)n3)CC2)cc1 (stereo not shown) ?
group A
